Experiment: soluble fraction after stress (log2 fold change); higher = more stays soluble; pooled small domains, quantitative proteomics
Conditions: stress: pH 4
Catalogue of sequences with associated soluble fraction (log2)
# output: bare number, no unit

Known results for sequences:
HMDNWYIAFNSFLSQNKLTAKNVSELTGLSKPTIDSYKQGKRKPTDENMQIIKDKLGFNISEILYN = -0.576
HMATETMGMIIRRLRREHGLTQEELAASIGVTAQAVSKWEKDLGMPDISQIVPLAGAFNVRTDVLFGLE = -0.672
HMENDGQFLRAEREKYGLTLTDIYEHTHIPIKKLKAYEMWEEEMPPRTRALLELYFDQVAFEYDS = -0.556
HMLPSMENWLGELSFWQTPWWERRDFSTFDNIAQSKEELDEFMSRDDNGAILERMQDPINTIEAE = -0.682
HMNSLGYSDFVVDVQNERVASVVIEGLIINGERRDGTKFRTVLPTIGDQRLMDDLINHNVKVLARE = 0.226
HMAEVPSLIGKSLDAAKQAIIDAGFKVGSVSYDNSDSYGKGQVMWQQYEPSTKVKKGSSISIKVSKGS = -0.121

For `HMLAVEKIEFVGNERIAAADLESALSALYDRPMTTISDDEIAKLLSGFSLIETFTSQAEPPHTLRVNIRE` the sequence record lists soluble fraction (log2) as -0.452

Value of measured soluble fraction (log2) for the entry `HMADKGTITNQQEKILKALILFPEGASIEEIQKAADLGIDKRQFQRRLNTLIESGQINRTGKSRGTKYHTI` : 0.356

So, `HMKMATITKRTNPSGAVVYRAQVRVKREGYPPYSESRTFSKKSLATEWAKRREFEIETNPDLLFN` ? Its soluble fraction (log2) was 0.0738

###

Measured soluble fraction (log2) values are reported for all entries that follow.
Test: soluble fraction after stress (log2 fold change); higher = more stays soluble; pooled small domains, quantitative proteomics
Conditions: stress: pH 4
Answer with a bare number; do not write a unit.

Observe how each entry below is paired with its result.
HMQEAGLITQRIREMREKENWTQEYMAEQLGMSENGYAKIERGESNLSLKRLQQIADIFEVESAELLK = -0.566
HMEYRVRDKMTDILELLTEHRGRIALRDAFPTGTREELLAAFLALLELTKMQTVIVYQDRLYDDIQIVMK = 0.22
HMGGEPVSARVPDTLHGARLDATAAALFPDFSRSRLAEWIKAGRLRRNDQPAKPRDKVAVDDHLLLIPEY = -0.431
HMYSKQRELIMEAVFKNRVHPTAEYVYKLLKKDHPELSLGTVYRNLNYWAENNMLKKINVPGGSDRFDGT = 0.236
HMRLHSSGEDYLKAIFILEAQHSSVRSVEVAEYMNVSKASVSHAVALLKKNGFLKMNQDYDLTER = -0.906
HMAPNVEENSKLIGEIGMTLTPLRPSGIATINNRRVDVVSNGDFIDQDERVMVKRVQGARVVVIPV = 0.1

Lab note: `HMDINMELGKNIRRLRKLNNLTQQSLANQMNRSKTLIALWEKGERDPSSIDLKRLSEIFNVRADDIIG` gave soluble fraction (log2) of -0.00935

Consider `HMSSPTAKATGSSVNIRKSASTGAAVLKRVEKGTVLEAVSISDGWVKVKYSGVTGYVSADYVKVSGL` . Its measured soluble fraction (log2) is 0.154

###

Assay: soluble fraction after stress (log2 fold change); higher = more stays soluble; pooled small domains, quantitative proteomics
Conditions: stress: pH 4
soluble fraction (log2) values by entry
Please respond with just the number, no unit label.

HMSEPTLESLRAEGAHHYDPARFHYLEVLARRMPGQHAAVQQVLASRLREAVAAYAGRRSLI = -0.252

Field soluble fraction (log2) (entry `HMTTEPYILTRMPDGSIKAEPNLNYKGPEQKPGSNIQVKGADGRIYLVPIDGQGKPGKPQLVD` ) reads 0.127

Just so you know, measured soluble fraction (log2) for `HMPTSPKANFLKELPQEFTRKQAVTIGDKLNIKERTVDNYLAKLEQAGYLVKPKAGYYQKIKS` came out at 0.22

soluble fraction (log2) recorded for this sequence, `HMGPEAFPVPYVVDIELDRAIYVIEQSGFIVGQKLEANDNNVPRGFVISQNPPAGTKLGPESIVDLVVSS` , is -0.281

The sequence listed as `HMKVTTGIDGLIGEEGVALSDFSGKGKIMVHGEIWNAEFSGEVKKGEVLLVEKANGMTLITRKKN` shows soluble fraction (log2) equal to -0.401

Data point: `HMKPQKRYLFEEVLTFLKHNSEKSFNYKQLGAAMEISNESDRFTLLETLEELKHQGFVVEKEIGKYQAKE` ; soluble fraction (log2) = 0.37

Lab note: measured soluble fraction (log2) of `HMYINVQNARTIASFRSSLWRMHRDFTNQGYITADGLKTFLEMGKLYEDAGGNDIYHSKLLPEITALEIKY` was -0.421

sequence `HMVEYIENINLSEKQKFIAHEILKEIRGRAIFLRDVGLDYLNLSRKAGTLSGGEAQRIRLATQIGSA` , soluble fraction (log2) observed: -0.347

###

Test: soluble fraction after stress (log2 fold change); higher = more stays soluble; pooled small domains, quantitative proteomics
Conditions: stress: pH 4
// F strictly below 0.01 in soluble fraction (log2); T otherwise

These recorded examples may help you get a feel for the data.
HMYRYGETPMVVVPDLIGRTVSDIYEEMNADFRLEKFGNGNTVISQAPKPGERVEQGSVIRVYLSGQDQ = F
HMRNISLSLRWHSGEWTADRLKSEVLALPGAMDMTVFEPQSQAYLRVEQGFDTKLLPAGIDVH = F

Data request: Check if soluble fraction (log2) >= 0.01 (inclusive). Item: `HMGELTNALATLSERERDVARLVAQGLDNRQIAAQLFLSEGTVRNRISDILDKLALTNRTQLAIAWLHAE`
Data returned: F

Data request: Please indicate if the recorded soluble fraction (log2) for `HMLHNEFINDRIQSAINNLSEHFKIVIILRDIQELSYEEISNIVEVPLGTIKSRINRARIQLQAELLDL` meets or exceeds 0.01.
Data returned: T

Data request: Record `HMGPVRRDLEINGRMVPLTIREHARATRITLRIEPGGQALRLTIPPGLPTREVDSFLTRHHGWLMTKLAHI` ; criterion: soluble fraction (log2) no lower than 0.01. Met?
Data returned: T

Data request: Is the recorded value of soluble fraction (log2) equal to or greater than 0.01 for this sequence? `HMERFRQVNAGMTRDDIYQLLGKPTEKTPFPLKNEEVWSWRHQADGQTVALFNIHLDPDGRVTTTSQSMDL`
Data returned: F

Data request: Hi team, for `HMDGVLLDHLDGFVTTRRGVEAWLEQPTSFNKPSILLVAADGESTRRAIPSIAFGYDFASRHDIPAYDAG` , is the recorded soluble fraction (log2) at or above 0.01?
Data returned: F

Data request: Determine whether this sequence has soluble fraction (log2) no lower than 0.01: `HMTARPTLEKLKYMIHEAGITENSLKVIVATKGHYGLDADISTYSDDFITRWIIPNWTKIVQTISNNK`
Data returned: T

###

Here the recorded soluble fraction (log2) is given for each entry.
Assay: soluble fraction after stress (log2 fold change); higher = more stays soluble; pooled small domains, quantitative proteomics
Conditions: stress: pH 4
// return just the number, without any unit appended

Record excerpt, results attached:
HMGIERTNADTSFSVNVYGKELIITSNKPLVVNIYAIDGTLVRTEQVTIGVNTVSGLPSGIYVVGQQKVVI = -0.752
HMLTRSTVNVETGTAAIGLGKLYGVYDMSRKGLKYSFSVDSDAMTKVMEMLLPLGIKSLTVEPPS = -0.658
HMNLQGIISQKAIVTQTIEPYETGVAKLNGEEWTAMSKDETRIEAGKLVEVVAIEGVKLIVKEVS = -0.295
HMHNISQTGRRIAGMTQERWAEALDISVESVRLYESGRGMPSDDVATRMVEVSGAPVLGYWH = -1.08

Data point: `HMKARLRRVFQIYYGDAYSIMKALKETFPLQTIVHEPRTNSIVVDTPDEETATKIGDVVSAL` ; soluble fraction (log2) = -0.563

// `HMISEAEGTILQLLKEADGTLPFTYKSDADEIKKVFGMSKKNFKRTLTELIEAKKIQLLDDAIVL` : soluble fraction (log2) value = -0.0222

For this sequence ( `HMGYGEQEQEAQKYLALHALMSQDPTLAKMYQAPNQYKLMSHVMEQNGIKNVNDYLTDPQQLP` ), measured soluble fraction (log2) is -0.161

Record `HMTGDISRALDQLPADMRTVLILYALEKQRYEDIAQITGVSVGTVKSRLNRARQKLAAILANQREQNE` , field soluble fraction (log2): -0.101

Query `HMSENLESEFFGIVVITQTLLQKELRDKPMTVELIRKTVEDVMSKHYSDSSVDKAKVEEELIRRFSTW` yields soluble fraction (log2) of -1.75
